Tested Target: UniProtKB Q49PX0
Assay Overview: Displacement of FITC-conjugated BH3-Bak peptide from 1 uM Vaccinia virus recombinant N1L expressed in Escherichia coli BL21 (DE3) by fluorescence polarization assay
Design: species or system Orthopoxvirus vaccinia
Entries and their log10 IC50 values follow.
Property Label: log10 IC50 (log10 of the value in µM)

1. COc1cc(C(=N\c2ccccc2)/C(=N/c2ccccc2)c2cc(OC)c(OC)c(OC)c2)cc(OC)c1OC; 0.54
2. COc1cc(C(c2ccccc2)c2ccccc2)c2ccccc2c1O; 0.30
3. COc1cc(C(c2ccc(O)c(OC)c2)c2ccc(O)c(OC)c2)ccc1O; 1.09
4. COc1cc(-c2ccc3cc(OC)c(OC)c(OC)c3c2)cc(OC)c1OC; 0.20
5. COc1ccc2ccccc2c1-c1c(O)ccc2ccccc12; 0.56
6. Oc1ccc(/C=C/c2cc(O)cc(O)c2)cc1; 1.34

* * *

Tested Target: N1L (Vaccinia virus)
Assay Overview: Displacement of FITC-conjugated BH3-Bak peptide from 0.5 uM Vaccinia virus recombinant N1L expressed in Escherichia coli BL21 (DE3) by fluorescence polarization assay
Design: species or system Orthopoxvirus vaccinia
pIC50: −log10 of the molar value.
Property Label: pIC50

1) Oc1cc(Cc2ccccc2)c(Cc2ccccc2)cc1O; 6.05
2) Oc1cc(C(c2ccccc2)c2ccccc2)c2ccccc2c1O; 6.22
3) COc1cc(C(c2ccccc2)c2ccccc2)c2ccccc2c1O; 5.74
4) COc1cc(-c2ccc3cc(OC)c(OC)c(OC)c3c2)cc(OC)c1OC; 6.05
5) COc1ccc2ccccc2c1-c1c(O)ccc2ccccc12; 5.82
6) COc1cc(C(c2ccc(O)c(OC)c2)c2ccc(O)c(OC)c2)ccc1O; 5.06

* * *

# pIC50 per record follows
Tested Target: N1L (Vaccinia virus, UniProt Q49PX0)
Assay Overview: Displacement of FITC-conjugated BH3-Bak peptide from 0.5 uM Vaccinia virus recombinant N1L expressed in Escherichia coli BL21 (DE3) by fluorescence polarization assay
Parameters: species or system Orthopoxvirus vaccinia
pIC50: −log10 of the molar value.
Property Label: pIC50

1) Oc1ccc(/C=N/c2ccccc2/N=C/c2ccc(O)c(O)c2)cc1O; 5.92
2) COc1ccc(C(C)c2cc(OC)c(OC)c(OC)c2)cc1 (centres undefined); 5.25
3) COc1ccc(CCc2cc(OC)c(O)c(OC)c2)cc1; 5.30
4) COc1cc(C(=N\c2ccccc2)/C(=N/c2ccccc2)c2cc(OC)c(OC)c(OC)c2)cc(OC)c1OC; 5.62

* * *

Here the recorded EC50 is given for each entry.
Tested on: Vaccinia virus
Assay Overview: Antiviral activity against GFP-expressing Vaccinia virus WR infected in human HT1080 cells after 2.5 days by fluorescence assay
Format: functional, organism-based
Settings: Orthopoxvirus vaccinia, HT-1080, 60 h
Property Label: EC50 (µM)

1. Oc1ccc(/C=N/c2ccccc2/N=C/c2ccc(O)c(O)c2)cc1O; 10.9
2. COc1cc(-c2ccc3cc(OC)c(OC)c(OC)c3c2)cc(OC)c1OC; 16.9

* * *

// reported pIC50 for each item listed
Tested Target: UniProt Q49PX0
Sequence (Q49PX0 whole entry): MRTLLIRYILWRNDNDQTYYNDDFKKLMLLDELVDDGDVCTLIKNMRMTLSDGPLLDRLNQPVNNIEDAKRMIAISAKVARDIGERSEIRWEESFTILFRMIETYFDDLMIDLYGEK
Assay Overview: Displacement of FITC-conjugated BH3-Bak peptide from 1 uM Vaccinia virus recombinant N1L expressed in Escherichia coli BL21 (DE3) by fluorescence polarization assay
Parameters: species or system Orthopoxvirus vaccinia
pIC50: −log10 of the molar value.
Property Label: pIC50

1) COc1ccc(C(C)c2cc(OC)c(OC)c(OC)c2)cc1 (stereo unspecified); 5.18
2) Oc1cc(C(c2ccccc2)c2ccccc2)c2ccccc2c1O; 5.72
3) COc1ccc(/C(=N/c2ccc(C)cc2)c2ccccc2)cc1; 5.77
4) COc1ccc(CCc2cc(OC)c(O)c(OC)c2)cc1; 5.12
5) Oc1ccc(/C=N/c2ccccc2/N=C/c2ccc(O)c(O)c2)cc1O; 5.89
6) Oc1cc(Cc2ccccc2)c(Cc2ccccc2)cc1O; 5.74
